Biological target: MAL^TIR (Homo sapiens, UniProt P58753)
Construct: MAL (residues 79–221); 6xHis; made in house; host or cells: E. coli BL21 (DE3)
Sequence (P58753 79-221): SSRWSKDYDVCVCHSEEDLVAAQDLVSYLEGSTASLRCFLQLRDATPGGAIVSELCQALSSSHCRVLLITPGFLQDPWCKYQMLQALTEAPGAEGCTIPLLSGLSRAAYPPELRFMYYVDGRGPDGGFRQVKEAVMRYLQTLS
Test: T‐Surf phage library (P8 and P3) selection against MAL^TIR, four rounds, NGS read counts
Format: binding
Details: P3 library, selection against MAL TIR; rank by count after grouping
ATTRIBUTE_MEASURED: P3_MAL Rank (after)

YAFTSHLSRYLVQRGV = 223
GWFREGLWRLLELSKK = 279
SSFREGLLRLLELRKK = 265
RGFLSHLSNLLQAKDH = 205
YNFISHLYDTLHRNRN = 272
SSFCEGLWRLLELSTK = 234
SSFRDGLWRLPELSKK = 246
YQWRNALTAAANLRGW = 238
NQWRNALTAAASLSGR = 221
YAFTGHLTGYLVQRGV = 220
YAFTDHLHRYVVQRGV = 209
PNLRTKVLNYLFRTNT = 237
NQWRNALTAEAKLSGW = 268
RLLKWKEEMHQFHSWV = 206
DQCRNALTAAANLSGW = 201
PNLRTNVLNYLMRPKT = 266
MERVKAFHQRLKTAPI = 225
VRHSFAGYRYDALNRL = 197

====

Biological target: MAL^TIR (Homo sapiens)
Construct: MAL (residues 79–221); 6xHis; made in house; host or cells: E. coli BL21 (DE3)
Assay: T‐Surf phage library (P8 and P3) selection against MAL^TIR, four rounds, NGS read counts
Assay type: binding
Settings: P8 library, selection against MAL, rank after grouping
ATTRIBUTE_MEASURED: P8_MAL Rank (after)

YFLHFLLVSRAEAEFI = 565
PFFWAQLKSLLRNPTS = 574
WSYERLVRLILRDTKV = 539
LFWELLRQALGSRNRL = 488
WFMMKFRTVLDRVPEV = 482
AFFWAKLKRVLGNPTL = 525
AFLYTFLINLTHPTKV = 514
AFLGAQLKSVLGKPTM = 554
WFLLKFRTVLAHVNDV = 511
AFLYTLLNNVLRNPTI = 556
SDFIQLINLLVKPKII = 558
AFLYTFLNNLTHTTNI = 536
AFFWAHLRTVLGKPTI = 529
WFYERLVSLILRVTKI = 553
AFFCAQQKSVLRNPTK = 516
RFMMKFRTELDRGNGG = 489
LCFRESLKQLLRSNGR = 535
FLNFRGLDVRNYFLGH = 560

====

Biological target: MyD88^TIR (Homo sapiens, UniProt Q99836)
Construct: MyD88 (residues 148–296); 6xHis; made in house; host or cells: E. coli BL21 (DE3)
Sequence (Q99836 148-296): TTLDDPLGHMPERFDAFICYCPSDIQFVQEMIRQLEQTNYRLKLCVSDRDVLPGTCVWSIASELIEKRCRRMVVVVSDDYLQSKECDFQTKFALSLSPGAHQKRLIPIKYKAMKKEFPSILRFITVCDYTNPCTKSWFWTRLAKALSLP
Assay: T‐Surf phage library (P8 and P3) selection against MyD88^TIR, four rounds, NGS read counts
Format: binding
Details: P3 library, selection against MyD88, rank by count before grouping
Protocol: T‐Surf libraries were screened against the immobilized TIR domains of two major human TLR adaptor proteins, MAL^TIR and MyD88^TIR, allowing cross‐species selection of TIR‐binding motifs with 190 946 TIR‐derived peptides in a single binding assay (Scheme 1). Enriched phage pools from the fourth round of selection were analyzed using NGS after barcoding the peptide‐coding regions of the phage pools. […]
ATTRIBUTE_MEASURED: P3_MyD88 Rank (before)

Example results:
SELRVVDDGSVSPRET = 3045
SSYRESLRRLPALSKK = 3266

[a] LQNQWELALTKKTKLV
[b] STAMTNRGFHTFRDND
[c] NELVQVWSSKANSLVR
Exam item: list the entries in increasing order of P3_MyD88 Rank (before). List the labels in the requested order.
b, a, c
(b: 1427, a: 2336, c: 3400)

====

Biological target: MyD88^TIR (Homo sapiens, UniProt Q99836)
Construct: MyD88 (residues 148–296); 6xHis; made in house; host or cells: E. coli BL21 (DE3)
Assay: T‐Surf phage library (P8 and P3) selection against MyD88^TIR, four rounds, NGS read counts
Type: binding
Settings: P3_MyD88 pool: P3 T-Surf phage library, 4th round of selection against MyD88 TIR, share of NGS reads
ATTRIBUTE_MEASURED: Population (%)

Example results:
LKWGYPWFWDRLRFA = 0.00495
LVAHEISKKMKIFATF = 0.00291
SSFREGL*RLLELSKK = 0.00466
LNWGDPYFWSKLRYAM = 0.00291
SGFREGLWRLLELSKK = 0.00291

[P] SENYATSPWALDELVP
[Q] SIFREGLWRLLELSKK
Lab note: record which item had the higher Population, P or Q . Refer to your chosen item by its label in the answer.
P

====

Target: MAL^TIR (Homo sapiens)
Construct: MAL (residues 79–221); 6xHis; made in house; host or cells: E. coli BL21 (DE3)
Assay: T‐Surf phage library (P8 and P3) selection against MAL^TIR, four rounds, NGS read counts
Format: binding
Details: P8_MAL: rank by count after grouping
Description: T‐Surf libraries were screened against the immobilized TIR domains of two major human TLR adaptor proteins, MAL^TIR and MyD88^TIR, allowing cross‐species selection of TIR‐binding motifs with 190 946 TIR‐derived peptides in a single binding assay (Scheme 1). Enriched phage pools from the fourth round of selection were analyzed using NGS after barcoding the peptide‐coding regions of the phage pools. […]
ATTRIBUTE_MEASURED: Rank (after)

Example results:
GCYERLVSLILRDTKV = 121
VTKLKKGKSIAPKLLR = 469
LFFWESLKQLLGNPTM = 177
RNLVAYLFQALETKGI = 416
WFYERLVKLVLRDTKV = 166

[a] WFYERLVRLILRDTKA
[b] TFLGHLYNMLIQAGIH
Lowest Rank (after)? choose a or b Refer to your chosen item by its label in the answer.
a
(a: 174, b: 393)

====

Target: MyD88^TIR (Homo sapiens)
Construct: MyD88 (residues 148–296); 6xHis; made in house; host or cells: E. coli BL21 (DE3)
Assay: T‐Surf phage library (P8 and P3) selection against MyD88^TIR, four rounds, NGS read counts
Assay type: binding
Conditions: P8_MyD88: rank by NGS read count after grouping
ATTRIBUTE_MEASURED: Rank (after)

DSQVLDWFYERLVSLL = 982
DIADEDLPYLIRLLYSL = 955
YLRRSVFQTMLARRTE = 899
YASSSWYLAELVHMPW = 989
YASYDDNDYYWVTHVLLRH = 997
PQDLVWFFEGLVSLIL = 952
YLLRSLFQTLFPRRTE = 1013
DWGWDYLLPQLEGSAG = 990
YKLALHFRDWLVGVH = 901
YPQDLQWLYERLGSLI = 892
FDASTWFFQEWARFL = 930
TSTWALDELLRILY = 912
WAFASNMAQFWDRLYS = 878
DFLSHLIKRLAVCTS = 896
DPQDLVWFYERLVSIV = 986
RGFLSHLRHHLQAKDH = 907
QLIGCGNTFFRWKKKIR = 1002
DWVWDYLLPNLEGHAT = 904

====

Target: MyD88^TIR (Homo sapiens)
Construct: MyD88 (residues 148–296); 6xHis; made in house; host or cells: E. coli BL21 (DE3)
Assay: T‐Surf phage library (P8 and P3) selection against MyD88^TIR, four rounds, NGS read counts
Format: binding
Details: P3 library, selection against MyD88 TIR; rank by count after grouping
ATTRIBUTE_MEASURED: P3_MyD88 Rank (after)

KEVEGWRDALTKWRA = 250
LKVESWRQALDELVL = 261
YTALNHSGFHTFRDND = 253
LKVERWRQSLEKAGKL = 217
YYLEPIYLRKQSGDFG = 283
YLQWGYSWFWDRLRFA = 259
NELVHEWSSKLMSLGV = 287
SSFREDLCRLLALSNK = 286
NELVHVWSSKANSLW = 262
LKWGDPYFWSKLLYSM = 247
SSFREGLWRLLEVSQK = 199
PSEVRKQTGSLAKALRRNCC = 254
TSHLHRAWRLNELRTY = 284
YNFISHLYDALRLNKIETF = 271
PEKDNGGENALSITL = 218
LKWGSVFLEQTALCD = 222
DHHLDLPRGKPIKREILG = 244

====

Molecular target: MyD88^TIR (Homo sapiens, UniProt Q99836)
Construct: MyD88 (residues 148–296); 6xHis; made in house; host or cells: E. coli BL21 (DE3)
Assay: T‐Surf phage library (P8 and P3) selection against MyD88^TIR, four rounds, NGS read counts
Assay type: binding
Settings: P8 library, selection against MyD88, rank after grouping
ATTRIBUTE_MEASURED: P8_MyD88 Rank (after)

LFWDRLLYSLHVTE = 569
YLRADDSWFWEKLLQIA = 553
DRVWDYLLPNLEGQAG = 545
YAASPWWFDDIQQIQLFWD = 543
YASSWWALEELLRILY = 568
SLLYDHLRWLGIRAFL = 541
YLLLNVFQIIFARGPE = 546
PQDLEWFYERLVTHVLLRHL = 566
LGYPWIDWEYYVGIED = 519
DPQGVDLFYERQVSLL = 567
WALDELLQILHACEPF = 524
LGYKRIDWEYFVGIED = 573
DPQDLDWFWVRLIEAL = 493
LGYQWNEWEYLVGIEE = 538
DPKALQWFYERLVSLI = 562
LGYHWIGWEYCVGIED = 482
DPQDPDWCYERLVSLI = 522
